Known melting point of a selection of compounds
RECORDED_ENDPOINT: melting point

[[record]]
compound = "Cc1cc(C(F)(F)F)cc(C)c1Nc1nccc2c1ncn2CC(=O)N1CCCC1 [Compound 49]"
recorded_endpoint = "melting point"
result = "196.6 °C"

[[record]]
compound = "Cc1nn(-c2ccccc2)c(C)c1Nc1nccc2c1ncn2CC(=O)N(C)C [Compound 41]"
recorded_endpoint = "melting point"
result = "126.3 °C"

[[record]]
compound = "Cc1cc(C(F)(F)F)nc(C)c1Nc1nccc2c1ncn2CC(=O)N(C)C [Compound 23]"
recorded_endpoint = "melting point"
result = "233.3 °C"

[[record]]
compound = "Cc1cc(C(F)(F)F)cc(C)c1Nc1ncc(F)c2c1ncn2CC(=O)N(C)C [Compound 35]"
recorded_endpoint = "melting point"
result = "236.7 °C"

[[record]]
compound = "Cc1cc(C)c(Nc2nccc3c2ncn3CC(=O)N(C)C)c(C)c1 [Compound 19]"
recorded_endpoint = "melting point"
result = "270.2 °C"


----------
- SYSTEM_UNDER_TEST: recombinant human Meningioma Expressed Antigen 5 (MGEA5), also referred to as O-GlcNAcase (OGA) (Homo sapiens, UniProt O60502)
- Construct: Full length OGA enzyme was purchased at OriGene (cat #TP322411); purchased OriGene TP322411
- Sequence (O60502 1-916): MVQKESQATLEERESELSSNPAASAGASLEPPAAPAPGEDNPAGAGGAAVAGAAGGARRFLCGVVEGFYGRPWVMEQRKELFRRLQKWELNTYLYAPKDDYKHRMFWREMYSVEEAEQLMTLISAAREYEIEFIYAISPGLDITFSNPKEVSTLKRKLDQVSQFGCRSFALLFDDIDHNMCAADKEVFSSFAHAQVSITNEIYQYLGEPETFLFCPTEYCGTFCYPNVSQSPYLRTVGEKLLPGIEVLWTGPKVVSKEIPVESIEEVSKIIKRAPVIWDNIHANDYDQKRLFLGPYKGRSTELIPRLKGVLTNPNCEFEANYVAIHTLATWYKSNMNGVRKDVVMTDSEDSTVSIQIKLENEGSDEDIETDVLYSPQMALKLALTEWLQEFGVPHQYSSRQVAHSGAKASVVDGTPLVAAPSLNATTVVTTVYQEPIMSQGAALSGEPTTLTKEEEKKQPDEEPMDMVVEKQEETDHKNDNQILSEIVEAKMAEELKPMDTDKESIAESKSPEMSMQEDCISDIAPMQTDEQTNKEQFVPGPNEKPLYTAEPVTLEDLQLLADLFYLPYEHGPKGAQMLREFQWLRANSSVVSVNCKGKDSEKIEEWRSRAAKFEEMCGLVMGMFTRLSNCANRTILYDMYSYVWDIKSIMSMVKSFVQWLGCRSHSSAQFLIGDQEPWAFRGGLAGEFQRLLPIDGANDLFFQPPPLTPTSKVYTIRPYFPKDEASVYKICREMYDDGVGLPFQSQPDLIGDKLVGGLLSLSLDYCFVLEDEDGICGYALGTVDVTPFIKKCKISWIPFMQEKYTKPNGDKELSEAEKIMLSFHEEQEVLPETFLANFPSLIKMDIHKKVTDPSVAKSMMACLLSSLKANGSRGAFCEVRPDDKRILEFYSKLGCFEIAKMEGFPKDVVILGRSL
- PROCEDURE_SUMMARY: OGA biochemical assay (inhibition of FM-GlcNAc hydrolysis, fluorescence)
- PROTOCOL_CONDITIONS: Enzymatic hOGA; pIC50, Table 5; full length OGA 2 nM, FM-GlcNAc 100 uM, 6 h at room temperature
RECORDED_ENDPOINT: IC50 (nM)

[[record]]
compound = "Cc1cc(C(F)(F)F)nc(C)c1Nc1nccc2c1ncn2CC(=O)N(C)C [Compound 23]"
result = 45.7

[[record]]
compound = "Cc1cc(C(F)(F)F)cc(C(C)C)c1Nc1nccc2c1ncn2CC(=O)N(C)C [Compound 12]"
result = 10.7

[[record]]
compound = "Cc1ccc(-n2nc(C)c(Nc3nccc4c3ncn4CC(=O)N(C)C)c2C)cc1 [Compound 45]"
result = 23.4

[[record]]
compound = "CCCCn1cnc2c(Nc3c(C)cc(F)cc3C)nccc21 [Compound 57]"
result = 53.7

[[record]]
compound = "Cc1cc(C(F)(F)F)cc(C)c1Nc1ncc(Cl)c2c1ncn2CC(=O)N(C)C [Compound 62]"
result = 692

[[record]]
compound = "Cc1ccc(-n2nc(C)c(Nc3nccc4c3ncn4CC(=O)N(C)C)c2C)cc1C [Compound 42]"
result = 21.9

[[record]]
compound = "Cc1nn(-c2cccc(C#N)c2)c(C)c1Nc1nccc2c1ncn2CC(=O)N(C)C [Compound 33]"
result = 20.4

[[record]]
compound = "Cc1cc2c(ncn2CC(=O)N(C)C)c(Nc2c(C)cc(C(F)(F)F)cc2C)n1 [Compound 30]"
result = 5890

